- Measured on: human LRRK2 kinase (Homo sapiens, UniProt Q5S007)
- Sequence (Q5S007 whole entry): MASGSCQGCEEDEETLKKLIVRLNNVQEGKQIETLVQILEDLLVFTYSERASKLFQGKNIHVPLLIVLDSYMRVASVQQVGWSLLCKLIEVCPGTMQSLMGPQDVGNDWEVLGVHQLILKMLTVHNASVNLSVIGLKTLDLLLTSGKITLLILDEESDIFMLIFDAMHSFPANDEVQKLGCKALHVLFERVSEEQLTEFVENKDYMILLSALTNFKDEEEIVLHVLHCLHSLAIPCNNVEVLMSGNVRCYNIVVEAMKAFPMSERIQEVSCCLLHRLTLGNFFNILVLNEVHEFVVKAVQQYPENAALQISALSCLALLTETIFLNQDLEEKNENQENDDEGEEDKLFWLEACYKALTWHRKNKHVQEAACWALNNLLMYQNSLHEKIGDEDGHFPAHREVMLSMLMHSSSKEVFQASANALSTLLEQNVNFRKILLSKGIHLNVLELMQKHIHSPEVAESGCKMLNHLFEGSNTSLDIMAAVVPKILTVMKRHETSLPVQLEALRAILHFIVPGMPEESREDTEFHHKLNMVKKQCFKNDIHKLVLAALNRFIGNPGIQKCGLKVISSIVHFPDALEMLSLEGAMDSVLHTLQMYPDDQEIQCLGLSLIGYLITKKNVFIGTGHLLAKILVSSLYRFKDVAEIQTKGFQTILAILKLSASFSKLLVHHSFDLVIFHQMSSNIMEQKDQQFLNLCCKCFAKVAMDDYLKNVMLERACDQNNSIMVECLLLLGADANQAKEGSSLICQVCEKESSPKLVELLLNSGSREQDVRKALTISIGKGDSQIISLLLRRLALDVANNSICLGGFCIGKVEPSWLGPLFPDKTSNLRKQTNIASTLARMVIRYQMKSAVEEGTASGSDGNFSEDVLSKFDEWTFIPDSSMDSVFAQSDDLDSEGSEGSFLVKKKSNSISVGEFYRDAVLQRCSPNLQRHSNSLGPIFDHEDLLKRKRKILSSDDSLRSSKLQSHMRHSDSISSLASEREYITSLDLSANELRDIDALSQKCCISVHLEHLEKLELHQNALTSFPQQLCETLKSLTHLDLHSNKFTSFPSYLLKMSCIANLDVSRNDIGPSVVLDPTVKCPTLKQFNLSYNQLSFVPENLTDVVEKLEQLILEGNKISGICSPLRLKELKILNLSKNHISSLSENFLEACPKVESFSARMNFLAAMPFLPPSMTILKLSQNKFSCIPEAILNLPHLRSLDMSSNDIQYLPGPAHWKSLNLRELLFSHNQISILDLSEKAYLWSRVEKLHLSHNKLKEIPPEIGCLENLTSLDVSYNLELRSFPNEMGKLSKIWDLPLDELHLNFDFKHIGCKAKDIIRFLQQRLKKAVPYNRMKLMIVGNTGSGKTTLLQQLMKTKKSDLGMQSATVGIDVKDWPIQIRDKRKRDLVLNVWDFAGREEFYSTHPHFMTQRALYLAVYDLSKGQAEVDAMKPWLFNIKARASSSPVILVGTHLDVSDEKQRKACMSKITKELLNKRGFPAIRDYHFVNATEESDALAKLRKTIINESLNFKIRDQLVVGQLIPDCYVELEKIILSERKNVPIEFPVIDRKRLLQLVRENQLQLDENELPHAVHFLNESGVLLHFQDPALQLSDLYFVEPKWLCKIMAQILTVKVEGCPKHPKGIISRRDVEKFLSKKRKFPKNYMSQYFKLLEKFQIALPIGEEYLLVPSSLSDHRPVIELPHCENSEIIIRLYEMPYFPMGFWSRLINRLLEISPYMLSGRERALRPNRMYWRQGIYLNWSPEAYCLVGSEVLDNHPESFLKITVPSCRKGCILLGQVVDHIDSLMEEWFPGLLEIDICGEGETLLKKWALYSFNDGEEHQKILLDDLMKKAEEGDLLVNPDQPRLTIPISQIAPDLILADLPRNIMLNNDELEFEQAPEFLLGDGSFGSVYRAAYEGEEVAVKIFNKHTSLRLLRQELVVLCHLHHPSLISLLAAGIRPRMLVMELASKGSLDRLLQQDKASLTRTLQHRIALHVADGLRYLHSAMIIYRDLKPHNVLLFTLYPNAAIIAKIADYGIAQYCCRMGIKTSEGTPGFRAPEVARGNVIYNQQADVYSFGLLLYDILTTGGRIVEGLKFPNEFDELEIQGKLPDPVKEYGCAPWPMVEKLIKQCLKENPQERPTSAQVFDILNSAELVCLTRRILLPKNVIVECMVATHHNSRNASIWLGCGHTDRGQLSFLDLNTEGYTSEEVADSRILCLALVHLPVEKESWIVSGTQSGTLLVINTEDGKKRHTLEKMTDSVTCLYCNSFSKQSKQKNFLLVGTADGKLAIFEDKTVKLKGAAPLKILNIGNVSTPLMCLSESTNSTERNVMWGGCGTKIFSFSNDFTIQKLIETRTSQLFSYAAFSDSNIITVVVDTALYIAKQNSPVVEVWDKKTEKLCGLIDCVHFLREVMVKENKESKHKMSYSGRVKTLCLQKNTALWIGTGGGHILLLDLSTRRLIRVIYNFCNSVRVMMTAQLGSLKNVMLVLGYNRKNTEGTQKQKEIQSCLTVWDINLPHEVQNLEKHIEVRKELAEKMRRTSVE
- Condition label: LRRK2, ADP-Glo, ATP 10 μM, 60 minutes at 25° C.
Result type: IC50

Reference set (6 entries):
1) COc1cc(P2(=O)CCN(C3CC3)CC2)ccc1Nc1nc(NC2CCCC2)c2c(Cl)c[nH]c2n1 10 to 100 nM
2) CNc1nc(Nc2ccc(S(=O)(=O)N3CCC(N4CCOCC4)CC3)cc2OC)nc2[nH]cc(Cl)c12 < 10 nM
3) CS(=O)(=O)CCNc1nc(Nc2ccc(C(=O)N3CCOCC3)c3c2OCCO3)nc2[nH]cc(Cl)c12 < 10 nM
4) COc1cc(S(=O)(=O)N2CCOCC2)ccc1Nc1nc(NC2CCCC2)c2c(Cl)c[nH]c2n1 100 to 1000 nM
5) CCCNc1nc(Nc2ccc(P3(=O)CCN(C4CC4)CC3)cc2OC)nc2[nH]cc(Cl)c12 10 to 100 nM
6) CCCCNc1nc(Nc2ccc(S(=O)(=O)N3CCOCC3)cc2OC)nc2[nH]cc(Cl)c12 10 to 100 nM

What does the record list as IC50 for `CNc1nc(Nc2ccc(C(=O)N3CCC(N4CCOCC4)CC3)c3c2OCCO3)nc2[nH]cc(Cl)c12` ?
< 10 nM

---

Each entry below lists one item and its recorded pIC50 value.
- Measured on: human LRRK2 kinase (Homo sapiens, UniProt Q5S007)
- Condition label: LRRK2, ADP-Glo, ATP 10 μM, 60 minutes at 25° C.
pIC50: −log10 of the molar value.

Sample answers from the record:
1) COc1cc(S(=O)(=O)N2CCOCC2)ccc1Nc1nc(NC2CC2)c2c(Cl)c[nH]c2n1 7.00 to 8.00
2) COc1cc(S(=O)(=O)N2CCOCC2)ccc1Nc1nc(NC2CCOCC2)c2c(Cl)c[nH]c2n1 > 8.00
3) COc1cc(S(=O)(=O)N2CCC(N3CCOCC3)CC2)ccc1Nc1nc(NC2CC2)c2c(Cl)c[nH]c2n1 > 8.00
4) COc1cc(S(C)(=O)=O)ccc1Nc1nc(NCC2CCC2)c2c(Cl)c[nH]c2n1 6.00 to 7.00
5) CCNc1nc(Nc2ccc(S(=O)(=O)N3CCOCC3)cc2OC)nc2[nH]cc(Cl)c12 < 6.00
6) CCNc1nc(Nc2ccc(S(=O)(=O)N3CCC(N4CCOCC4)CC3)cc2OC)nc2[nH]cc(Cl)c12 > 8.00
7) CCNc1nc(Nc2ccc(P3(=O)CCN(C(C)=O)CC3)cc2OC)nc2[nH]cc(Cl)c12 > 8.00

Field: next compound
Return reported pIC50; argument: `COc1cc(S(=O)(=O)N2CCC(N3CCOCC3)CC2)ccc1Nc1nc(NCCS(C)(=O)=O)c2c(Cl)c[nH]c2n1`
> 8.00

---

- Measured on: human LRRK2 kinase (Homo sapiens)
- Condition label: read-out: LRRK2; ADP-Glo, ATP 10 μM, 60 minutes at 25° C.
Result type: IC50

GET /values?readout=IC50&item= CCC(C)Nc1nc(Nc2ccc(S(=O)(=O)N3CCOCC3)cc2OC)nc2[nH]cc(Cl)c12 (stereo in doubt)
100 to 1000 nM

---

- Measured on: human LRRK2 kinase (Homo sapiens, UniProt Q5S007)
- Condition label: LRRK2, ADP-Glo, ATP 10 μM, 60 minutes at 25° C.
pIC50: −log10 of the molar value.
pIC50 overview

Some solved cases for reference:
1. CNc1nc(Nc2ccc(S(=O)(=O)N3CCOCC3)cc2OC)nc2[nH]cc(Cl)c12 > 8.00
2. CCCNc1nc(Nc2ccc(S(C)(=O)=O)cc2OC)nc2[nH]cc(Cl)c12 7.00 to 8.00
3. CCNc1nc(Nc2ccc(C(=O)N3CCOCC3)c3c2OCCO3)nc2[nH]cc(Cl)c12 > 8.00

Fill in: pIC50 of `O=C(c1ccc(Nc2nc(NC3CCCCC3)c3c(Cl)c[nH]c3n2)c2c1CCO2)N1CCC(N2CCOCC2)CC1` is ___
6.00 to 7.00

Can you look up the measured pIC50 of `COc1cc(S(=O)(=O)N2CCOCC2)ccc1Nc1nc(NC2CCCCC2)c2c(Cl)c[nH]c2n1` for me?
6.00 to 7.00

Given the entry `COc1cc(P2(=O)CCN(C3CC3)CC2)ccc1Nc1nc(NC2CC2)c2c(Cl)c[nH]c2n1` , report its measured pIC50.
7.00 to 8.00

Suppose we examine the compound `CCCNc1nc(Nc2ccc(S(=O)(=O)N3CCOCC3)cc2OC)nc2[nH]cc(Cl)c12` ; what pIC50 value has been reported?
6.00 to 7.00

Quick one: pIC50 for `CCCNc1nc(Nc2ccc(P3(=O)CCN(C(C)=O)CC3)cc2OC)nc2[nH]cc(Cl)c12` ?
7.00 to 8.00

---

- Measured on: UniProt Q5S007
- Condition label: LRRK2, ADP-Glo, ATP 10 μM, 60 minutes at 25° C.
pIC50: −log10 of the molar value.
Result type: pIC50

Compound	Assay value
CCC(C)Nc1nc(Nc2ccc(S(C)(=O)=O)cc2OC)nc2[nH]cc(Cl)c12 (stereo in doubt)	6.00 to 7.00
CC[C@@H](C)Nc1nc(Nc2ccc(S(=O)(=O)N3CCOCC3)cc2OC)nc2[nH]cc(Cl)c12	6.00 to 7.00
CNc1nc(Nc2ccc(C(=O)N3CCC(N4CCOCC4)CC3)c3c2OCO3)nc2[nH]cc(Cl)c12	> 8.00

What pIC50 appears in the records for this compound with UniProt Q5S007? `CCNc1nc(Nc2ccc(P3(=O)CCN(C4CC4)CC3)cc2OC)nc2[nH]cc(Cl)c12`
7.00 to 8.00

Give recorded pIC50 with UniProt Q5S007 for the following compound: `CNc1nc(Nc2ccc(C(=O)N3CCC(N4CCOCC4)CC3)c3c2OCC3)nc2[nH]cc(Cl)c12`
> 8.00

What value of pIC50 on UniProt Q5S007 does `O=C(c1ccc(Nc2nc(NC3CCC3)c3c(Cl)c[nH]c3n2)c2c1CCO2)N1CCC(N2CCOCC2)CC1` have?
7.00 to 8.00

---

- Measured on: human LRRK2 kinase (Homo sapiens)
- Condition label: LRRK2, ADP-Glo, ATP 10 μM, 60 minutes at 25° C.
pIC50: −log10 of the molar value.
# pIC50 annotations

For orientation, consider the following solved cases.
1. CC(C)Nc1nc(Nc2ccc(C(=O)N3CCC(N4CCOCC4)CC3)c3c2OCCO3)nc2[nH]cc(Cl)c12 7.00 to 8.00
2. COc1cc(S(C)(=O)=O)ccc1Nc1nc(NC2CC2)c2c(Cl)c[nH]c2n1 > 8.00
3. COc1cc(S(=O)(=O)N2CCC(N3CCOCC3)CC2)ccc1Nc1nc(NC2CCC2)c2c(Cl)c[nH]c2n1 6.00 to 7.00

What value of measured pIC50 is listed for `COCCNc1nc(Nc2ccc(S(=O)(=O)N3CCC(N4CCOCC4)CC3)cc2OC)nc2[nH]cc(Cl)c12` ?
> 8.00

---

- Measured on: human LRRK2 kinase (Homo sapiens, UniProt Q5S007)
- Condition label: LRRK2, ADP-Glo, ATP 10 μM, 60 minutes at 25° C.
pIC50: −log10 of the molar value.
Reported pIC50 values for the following molecules.

Which measured pIC50 belongs to COc1cc(S(=O)(=O)N2CCOCC2)ccc1Nc1nc(NCC2CCCC2)c2c(Cl)c[nH]c2n1 [Compound 45] , tested on human LRRK2 kinase (Homo sapiens, UniProt Q5S007)?
6.00 to 7.00

---

- Measured on: human LRRK2 kinase (Homo sapiens)
- Condition label: LRRK2, ADP-Glo, ATP 10 μM, 60 minutes at 25° C.
pIC50: −log10 of the molar value.
Result type: pIC50

// below: answered compounds
1) CCCCNc1nc(Nc2ccc(C(=O)N3CCOCC3)c3c2OCCO3)nc2[nH]cc(Cl)c12 7.00 to 8.00
2) CCCNc1nc(Nc2ccc(S(=O)(=O)N3CCC(N4CCOCC4)CC3)cc2OC)nc2[nH]cc(Cl)c12 6.00 to 7.00
3) CNc1nc(Nc2ccc(P3(=O)CCN(C4CCOCC4)CC3)cc2OC)nc2[nH]cc(Cl)c12 > 8.00

Item `CNc1nc(Nc2ccc(C(=O)N3CCOCC3)c3c2OCCO3)nc2[nH]cc(Cl)c12` has what recorded pIC50?
> 8.00

Please give the measured pIC50 for this compound: `COc1cc(P2(=O)CCN(C3CCOCC3)CC2)ccc1Nc1nc(NC2CCCC2)c2c(Cl)c[nH]c2n1`
7.00 to 8.00

Which pIC50 is reported for this compound? `COc1cc(S(C)(=O)=O)ccc1Nc1nc(NC2CCOCC2)c2c(Cl)c[nH]c2n1`
7.00 to 8.00

What pIC50 value was documented for this compound, `COc1cc(S(C)(=O)=O)ccc1Nc1nc(NCC(C)C)c2c(Cl)c[nH]c2n1` ?
6.00 to 7.00
